# pKd listing for each entry below
- measurement target: Su(dx) WW3-4 tandem domain pair (Drosophila, UniProt Q9Y0H4 474-554)
- Sequence (Q9Y0H4 474-554): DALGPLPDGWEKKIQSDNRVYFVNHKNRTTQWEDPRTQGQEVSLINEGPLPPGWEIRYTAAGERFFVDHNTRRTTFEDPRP
- assay remarks: ITC
pKd: −log10 of the molar value.

- binder: "AKQPPSYEDCIK [Notch PY motif peptide N1]"
  pKd: 4.02
- binder: "GPPPPPYPG [WBP1 peptide]"
  pKd: 3.73
